Test system: SUM149PT spheroids with HUVEC/MSC, viability
Assay: Anticancer human tumor SUM149PT cell line growth inhibition [GQUAD];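 also: spheroids exposed to drugs for seven days before readout; percent viability relative to DMSO vehicle control taken as 100%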
Conditions: second compound 1 µM; first compound 1 µM; active compounds read low
Excerpt: DNA G-quadruplex Stabilizer Agents in Combinations in Complex Spheroids A high-throughput screen of multi-cell type tumor spheroids was designed to identify active combinations of DNA G-quadruplex stabilizer agents and targeted small molecules. […] Compounds. […] If the clinical Cmax for an agent had not been determined, the highest concentration tested was 10 microM. […]
Assign viability, T/C to each entry below.
Answers are plain numbers, in %.

molecule: CC(=O)O[C@H]1C(=O)[C@@]2(C)[C@H]([C@H](OC(=O)c3ccccc3)[C@]3(O)C[C@H](OC(=O)[C@H](O)[C@@H](NC(=O)c4ccccc4)c4ccccc4)C(C)=C1C3(C)C)[C@]1(OC(C)=O)CO[C@@H]1C[C@@H]2O + Cc1[nH]c2ccc(F)cc2c1-c1nc2c3cccnc3c3ncccc3c2[nH]1
readout: viability, T/C
unit tag: %
endpoint value: 17.3
//
molecule: Nc1ccn(C2OC(CO)C(O)C2(F)F)c(=O)n1 (stereo not drawn) + Cc1[nH]c2ccc(F)cc2c1-c1nc2c3cccnc3c3ncccc3c2[nH]1
readout: viability, T/C
unit tag: %
endpoint value: 21

The reported value for Cc1cccc(N(C)C(=O)C2C(O)CCN2c2nc(C)cc(C(F)(F)F)c2C#N)c1 (stereo not drawn) + CN(C)c1ccc(Nc2c3ccc(NC(=O)CCN4CCCC4)cc3nc3cc(NC(=O)CCN4CCCC4)ccc23)cc1 in terms of viability, T/C is 87.9
